Experiment: Solubility in oil solvent (amount of compound dissolved per ml of solvent)
Assay type: physicochemical
Details: oil or lipid, thermodynamic from solid; oleic acid; dissolved by heating in waterbath of 50° C. and Vortex shaking 15 minutes; read-out: solubility oleic acid
Endpoint Label: solubility at 15 min

Please review the entries below; each comes with its answer.
Molecule: CCCCCCCCCCC(=O)O[C@H]1CC[C@H]2[C@@H]3CCC4=CC(=O)CC[C@]4(C)[C@H]3CC[C@]12C [testosterone undecanoate]
Reported Value: 200 to 250 mg/mL

Molecule: C[C@@H]1CC2=CC(=O)CC[C@@H]2[C@H]2CC[C@]3(C)[C@@H](O)CC[C@H]3[C@@H]21 [MENT]
Reported Value: ~15 mg/mL

Molecule: C[C@]12CC[C@H]3[C@@H](CCC4=CC(=O)CC[C@@]43C)[C@@H]1CC[C@@H]2O [testosterone]
Reported Value: ~25 mg/mL

Exercise: Report solubility at 15 min for CCCCCCCCCCC(=O)O[C@H]1CC[C@H]2[C@H]3[C@H](CC[C@]12C)[C@H]1CCC(=O)C=C1C[C@H]3C [MENT undecanoate] please.
Key: ≥ 500 mg/mL

---

Assay: Solubility in oil solvent (amount of compound dissolved per ml of solvent)
Format: physicochemical
Settings: oil or lipid, thermodynamic from solid; arachis oil; dissolved by heating in waterbath of 50° C. and Vortex shaking 15 minutes; read-out: solubility arachis oil
Endpoint Label: solubility at 15 min

Molecule: CCCCCCCCCCC(=O)O[C@H]1CC[C@H]2[C@H]3[C@H](CC[C@]12C)[C@H]1CCC(=O)C=C1C[C@H]3C [MENT undecanoate]
Reported Value: > 200 mg/mL
//
Molecule: C[C@@H]1CC2=CC(=O)CC[C@@H]2[C@H]2CC[C@]3(C)[C@@H](O)CC[C@H]3[C@@H]21
Reported Value: ≤ 0.1 mg/mL
//
Molecule: C[C@]12CC[C@H]3[C@@H](CCC4=CC(=O)CC[C@@]43C)[C@@H]1CC[C@@H]2O
Reported Value: < 0.1 mg/mL

Could you now consider this next molecule?
Exercise: Give its solubility at 15 min value. Item: CCCCCCCCCCC(=O)O[C@H]1CC[C@H]2[C@@H]3CCC4=CC(=O)CC[C@]4(C)[C@H]3CC[C@]12C [testosterone undecanoate]
Key: ~45 mg/mL
